# ASSAY_SYSTEM: human D2R/β-arrestin (Homo sapiens (Human))
# Sequence (P14416 whole entry): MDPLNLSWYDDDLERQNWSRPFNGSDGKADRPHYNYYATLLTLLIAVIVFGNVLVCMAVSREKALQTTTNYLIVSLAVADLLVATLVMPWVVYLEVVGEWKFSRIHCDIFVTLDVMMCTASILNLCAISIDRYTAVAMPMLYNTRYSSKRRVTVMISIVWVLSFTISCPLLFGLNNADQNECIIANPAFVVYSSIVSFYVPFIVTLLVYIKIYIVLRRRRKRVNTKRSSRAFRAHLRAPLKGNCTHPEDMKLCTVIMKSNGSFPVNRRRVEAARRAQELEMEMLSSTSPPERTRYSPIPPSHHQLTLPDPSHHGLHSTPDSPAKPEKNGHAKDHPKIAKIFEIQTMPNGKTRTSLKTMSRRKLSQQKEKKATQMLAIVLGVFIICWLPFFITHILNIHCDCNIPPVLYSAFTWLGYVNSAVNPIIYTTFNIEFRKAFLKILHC
# ASSAY_NOTES: Gi/cAMP agonist assay (Lance Ultra cAMP, forskolin)
# Type: cell-based
# CONDITION_CONTEXT: CHO-K1 cells expressing human D2R/β-arrestin; agonist mode, 2.5 μM forskolin
pEC50: −log10 of the molar value.

>  <MOLECULE>
CC1(O)CCCN(CCOc2ccccc2C(F)(F)F)C1 (centres unmarked) [Compound 134]

>  <ASSAY_SYSTEM>
human D2R/β-arrestin (Homo sapiens (Human))

>  <pEC50>
< 4.52

$$$$
>  <MOLECULE>
CC1(Oc2cccc(C(F)(F)F)c2)CCN(CCOc2cc(F)ccc2F)C1 (centres unmarked) [Example 66]

>  <ASSAY_SYSTEM>
human D2R/β-arrestin (Homo sapiens (Human))

>  <pEC50>
> 7.00

$$$$
>  <MOLECULE>
CC1(C(=O)NC2CC2)CCN(CC2COc3ccccc3O2)CC1 (centres unmarked) [Compound 203]

>  <ASSAY_SYSTEM>
human D2R/β-arrestin (Homo sapiens (Human))

>  <pEC50>
> 7.00

$$$$
>  <MOLECULE>
CC1(Oc2ccncc2)CCN(CCOc2ccccc2)C1 (centres unmarked) [Example 59b]

>  <ASSAY_SYSTEM>
human D2R/β-arrestin (Homo sapiens (Human))

>  <pEC50>
> 7.00

$$$$
>  <MOLECULE>
CC1(Oc2cccc(C(F)(F)F)c2)CCCN(CCOc2ccccc2F)C1 (centres unmarked) [Example 61]

>  <ASSAY_SYSTEM>
human D2R/β-arrestin (Homo sapiens (Human))

>  <pEC50>
< 4.52

$$$$
